Consider the following compounds; for each one, report its IC50.
# EXPERIMENTAL TARGET: human PCSK9 / human LDLR EGFa domain interaction (Homo sapiens (Human))
# Sequence (Q8NBP7 153-692): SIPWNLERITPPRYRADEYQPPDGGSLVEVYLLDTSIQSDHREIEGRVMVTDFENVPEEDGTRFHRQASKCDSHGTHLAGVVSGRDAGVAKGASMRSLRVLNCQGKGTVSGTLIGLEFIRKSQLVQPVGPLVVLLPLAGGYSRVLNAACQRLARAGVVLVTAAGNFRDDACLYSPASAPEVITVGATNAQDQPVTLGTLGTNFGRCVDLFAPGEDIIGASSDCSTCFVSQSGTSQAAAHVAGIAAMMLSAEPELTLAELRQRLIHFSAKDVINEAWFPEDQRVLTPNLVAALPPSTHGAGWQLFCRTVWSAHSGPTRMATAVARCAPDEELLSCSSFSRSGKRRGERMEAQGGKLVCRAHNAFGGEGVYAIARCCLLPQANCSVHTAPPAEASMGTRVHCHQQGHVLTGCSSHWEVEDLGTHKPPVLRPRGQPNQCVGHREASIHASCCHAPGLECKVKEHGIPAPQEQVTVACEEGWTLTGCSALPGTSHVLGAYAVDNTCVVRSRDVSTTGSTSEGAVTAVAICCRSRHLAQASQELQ
# Sequence (Q8NBP7 31-152 partner): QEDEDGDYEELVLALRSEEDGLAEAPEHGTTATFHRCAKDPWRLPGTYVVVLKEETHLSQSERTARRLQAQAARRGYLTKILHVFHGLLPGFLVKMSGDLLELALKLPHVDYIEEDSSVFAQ
# PROTOCOL SUMMARY: TR-FRET assay of inhibition of the PCSK9-LDLR protein-protein interaction
# Type: binding
# MEASUREMENT PARAMETERS: TR-FRET, 20 nM human PCSK9, 20 nM human LDLR EGFa domain, 2 hours room temperature; read-out: IC50
Starred links: 1 amine or outer side, 2 acyl side, 3 side chain; linkers in the order of their positions; H or OH if unused. Positions of bridges follow the written chain, without caps; N, C: chain ends. Non-standard residues stand in square brackets, D forms with d. Residues, ends and D or L forms follow the SMILES beside them. Trp(5-OH) = N[C@@H](Cc1c[nH]c2ccc(O)cc12)C(=O)O; Trp(5-F) = N[C@@H](Cc1c[nH]c2ccc(F)cc12)C(=O)O; mXylylene = c1cc(C[*:1])cc(C[*:2])c1; Cha = N[C@@H](CC1CCCCC1)C(=O)O; αMeP = C[C@@]1(C(=O)O)CCCN1; Mpa = O=C(O)CCS

Which IC50 is listed for C[C@@]12CCCN1C(=O)[C@H](Cc1ccc(O)cc1)NC(=O)[C@H](Cc1cnc[nH]1)NC(=O)[C@H](CC(=O)O)NC(=O)[C@H](Cc1c[nH]c3ccc(O)cc13)NC(=O)[C@H](Cc1c[nH]c3ccc(F)cc13)NC(=O)CNC(=O)[C@H](CCCCN)NC(=O)CCSCc1cccc(c1)CSC[C@@H](C(N)=O)NC2=O [Compound 399] ([Mpa]KG[Trp(5-F)][Trp(5-OH)]DHY[αMeP]C-NH2; linker 1-10 via mXylylene) ?
0.1 to 100 nM

API: the following record is the query input.
Which IC50 is listed for NCCCC[C@@H]1NC(=O)CCSCc2cccc(c2)CSC[C@@H](C(N)=O)NC(=O)[C@@H]2CCCN2C(=O)[C@H](Cc2ccc(O)cc2)NC(=O)[C@H](Cc2c[nH]cn2)NC(=O)[C@H](CC(=O)O)NC(=O)[C@H](Cc2c[nH]c3ccc(F)cc23)NC(=O)[C@H](CC2CCCCC2)NC(=O)CNC1=O [Compound 223] ([Mpa]KG[Cha][Trp(5-F)]DHYPC-NH2; linker 1-10 via mXylylene) ?
0.1 to 100 nM
